Reference for the values: the kinase profiling compilation of Christmann-Franck et al. (2016)

target: GSK3A (human); experiment: radiometric filter-binding kinase assay, Kinase HotSpot; conditions: compound 0.5 µM; ATP 10 µM
Reported values of residual activity for individual entries
# output: bare number, implied unit %

Solved entries (count: 2):
> print(dat)
                           structure.smiles  data.value
1    CC(C)N(CCC(=O)c1ccc2ccccc2c1)Cc1ccccc1        98.8
2  Nc1cccc(-c2cc3c(Oc4cccc(O)c4)ncnc3[nH]2)c1        41.6

# context switch: different compound, same residual activity
QUERY: Item under review: `Oc1cccc(-c2nc(N3CCOCC3)c3oc4ncccc4c3n2)c1` . Reported residual activity?
RESULT: 90.2
